# Test system: PC-3 prostate
# run_description: NCI-60 one-dose screen, 48 h (100 = growth as untreated, 0 = no growth, -100 = all killed)
# condition_set: 10 µM unless noted
The panel holds about 83,000 compounds, 20% with a hit somewhere; the sample as a whole holds those more often.
Returns 1 if the recorded growth is greater than or equal to 70%, and 0 otherwise.

Problem: Could you verify whether the entry CC(Nc1c(C#N)cnc2ccc(-c3cncc(-c4n[nH]c(=O)o4)c3)cc12)c1ccccc1 (centres undefined) shows growth of no less than 70%?
Result: 0

Problem: Identify whether the reported growth of the following molecule is 70% or greater: C/C(=N\NC(N)=S)c1nnn(-c2ccc([N+](=O)[O-])cc2)c1C
Result: 1

Problem: Answer whether growth of COc1cc(/C=N\NC(=O)c2ccc3nc(-c4ccc(Br)cc4)[nH]c3c2)cc(OC)c1OC is greater than or equal to 70%.
Result: 0

Problem: API: above_or_equal(metric=growth, cutoff=70%) for item CCC(=C(c1ccc(OCCN(C)C)cc1)c1ccc(OCCN(C)C)cc1)c1ccc(Cl)cc1
Result: 0

Problem: growth >= 70% for C=C(C)[C@@H]1CC[C@]2(C(=O)O)CC[C@]3(C)[C@H](CC[C@@H]4[C@@]5(C)C/C(=C/c6ccccn6)C(=O)C(C)(C)[C@@H]5CC[C@]43C)[C@@H]12 ?
Result: 0

Problem: Does the reported growth for CC1=C(C)C(=O)C(Nc2cccc(C)c2)=C(Br)C1=O fall at or above the 70% mark?
Result: 1

Problem: Reported growth reaches at least 70% for COc1ccc(C(=O)c2c(N)c(C#N)cn2-c2ccc(Cl)cc2Cl)cc1 ?
Result: 1

Problem: # check: growth of NS(=O)(=O)c1ccc(Nc2nc(N/N=C/C=C/c3ccccc3)nc(Nc3ccccc3)n2)cc1 is greater than or equal to 70%
Result: 0

---

# System: OVCAR-8 ovarian
# run_description: NCI-60 one-dose screen, 48 h (100 = growth as untreated, 0 = no growth, -100 = all killed)
# condition_set: 10 µM unless noted
The panel holds about 83,000 compounds, 20% with a hit somewhere; the sample as a whole holds those more often.
value_kind: growth (%)
# value in %; strip the unit string

// below: answered compounds
INSERT INTO results (compound, unit_string, value_measured) VALUES
  ('CCOC(=O)c1cccnc1Nc1ccc(NC(=O)Nc2ccc(Cl)c(C(F)(F)F)c2)cc1', '%', 39.3),
  ('CC(Nc1ncnc2ccc(-c3cnc4cnccn34)cc12)c1ccccc1 (centres undefined)', '%', 59.7);

Problem: Which measured growth value corresponds to COc1ccc2c(c1)c(-c1nc(N)nnc1-c1c[nH]c3ccccc13)cn2C ?
Result: 51.3

Problem: Look up growth: COC(=O)c1ccc(NC2=C(Cl)C(=O)C(C)=C(C)C2=O)cc1
Result: 77.9

Problem: Which value of growth has been reported for C#CCOc1ccccc1C(OC(=O)c1ccccc1)C(=O)NC(C)(C)C(C)(C)C (centres undefined) in the records?
Result: 89.3

Problem: // growth lookup, key: CCCC/C(=C\c1ccc(O)c(O)c1)C(=O)NC(Cc1ccccc1)C(=O)C(=O)NCCc1ccc(OC)cc1 (centres undefined)
Result: 97.2

Problem: I am curious: what growth value has been reported for CC(=O)N1N=C(c2cc3ccccc3oc2=O)CC1c1cn(-c2ccccc2)nc1-c1ccc(C)cc1 (centres undefined) ?
Result: 97.3

Problem: I am curious: what growth value has been reported for O=C1C(SCc2ccccc2)=C(Cl)CN1c1ccccc1 ?
Result: 101

Problem: # input compound: COc1cc2cc(Oc3ccc(NC(=O)Nc4ccc(F)c(C(F)(F)F)c4)cc3)c(C)nc2cc1OCCN(C)C ; wanted: its growth
Result: 102

---

# Test system: OVCAR-5 ovarian
# run_description: NCI-60 one-dose screen, 48 h
# condition_set: 10 µM unless noted
About 83,000 compounds went through this panel and 20% of them were active in at least one assay; those are over-represented in the sample as a whole. Activity calls are given as the source filed them. The calls were made as follows: active = growth percent below 10; inactive = the rest.
A correct response names exactly one class from active, inactive

# count of solved cases: 6
INSERT INTO results (compound, assigned_class) VALUES
  ('O=[N+]([O-])c1ccc(NC(=S)NNC(=S)Nc2ccc(F)cc2)cc1', 'inactive'),
  ('CC1=C(C)C(=O)C(Nc2ccc3c(c2)OCO3)=C(Br)C1=O', 'inactive'),
  ('COc1ccc(-c2cc(-c3ccc(N(C)C)cc3)n3c(n2)nc2ccccc23)cc1', 'inactive'),
  ('CC(=O)c1c([Si](C)(C)C)c2cc(C#N)ccn2c1C(=O)c1ccc(Br)cc1', 'inactive'),
  ('CCCCCN1C(=O)/C(=c2\sc3n(c2=O)C2C(NN=3)N(CC)C(=O)N2CC)c2cccc(C)c21 (centres undefined)', 'inactive'),
  ('Cn1c(SCC(=O)c2ccc(F)cc2)nc2ccccc2c1=O', 'inactive');

Problem: Dear all, I need the recorded test outcome for COc1cccc2c1[C@H](OC)[C@]13O[C@@]1(C2=O)[C@H](O)[C@H](C)[C@@](O)(C(=O)[C@@H]1O[C@H]1C)[C@@H]3O , thank you.
Result: active

Problem: Identify the outcome logged in this assay for the compound shown: CN1CCN(Cc2ccc(/C=N/Nc3ccnc4cc(Cl)ccc34)cc2)CC1
Result: inactive

Problem: I'd appreciate the recorded outcome for CC(=C(c1ccc(OCCN2CCCC2)cc1)c1ccc(OCCN2CCCC2)cc1)c1ccc(Cl)cc1 from this test.
Result: active

---

# Tested on: CAKI-1 renal
# run_description: NCI-60 one-dose screen, 48 h (100 = growth as untreated, 0 = no growth, -100 = all killed)
# condition_set: 10 µM unless noted
This is part of a sample that, as a whole, favours compounds with a hit. Of some 83,000 tested, about 20% had one in any assay.
value_kind: growth (%)
Give the number; % is assumed, so skip it.

Problem: Which measured growth belongs to O=C(/C=C/c1cccc(F)c1)c1cccc(OCCCCOc2cccc(C(=O)/C=C/c3cccc(F)c3)c2)c1 , tested on CAKI-1 renal?
Result: 99.1

Problem: Write down the reported growth of CCN1CCN(c2ccc(NC(=O)Nc3ccc4c(ccn4-c4ccnc(C(=O)NC)c4)c3)cc2C(F)(F)F)CC1 , test system: CAKI-1 renal.
Result: 79.3

Problem: Record lookup: for CAKI-1 renal, what growth belongs to CCCc1cc2cc(-n3nc(CC)c4c3CC(C)(C)CC4=O)cc(NC3CCC(O)CC3)c2c(=O)[nH]1 (centres undefined) ?
Result: 19.6

Problem: Recall the recorded growth for CCCCc1nc2c(N)nc3ccccc3c2n1Cc1ccc(OC)cc1 with CAKI-1 renal and state it.
Result: 52.2

Problem: Test system CAKI-1 renal; read-out growth; what value for COc1ccc(C(C)=C(c2ccc(OCCN3CCCCCC3)cc2)c2ccc(OCCN3CCCCCC3)cc2)cc1 ?
Result: -45.9

---

# System: MDA-MB-435 melanoma
# run_description: NCI-60 one-dose screen, 48 h (100 = growth as untreated, 0 = no growth, -100 = all killed)
# condition_set: 10 µM unless noted
This is part of a sample that, as a whole, favours compounds with a hit. Of some 83,000 tested, about 20% had one in any assay.
Decision: growth beneath 50% gives label 1; growth meeting or exceeding 50% gives label 0.

Here are 5 compounds together with their reported answers.
INSERT INTO results (compound, assigned_class) VALUES
  ('C#CCOc1ccccc1C(OC(=O)c1ccccc1)C(=O)NC(C)(C)C(C)(C)C (stereo unspecified)', 'label 0'),
  ('O=C(CCCCCCNC(=O)c1csc(Br)n1)NO', 'label 1'),
  ('CS(=O)(=O)c1ccc(/C(=N/N=C(N)N)c2ccc(Cl)cc2)cc1', 'label 1'),
  ('CN(C)S(=O)(=O)c1ccc(-c2nc(C(Cl)Cl)nc3cc(-c4ccccc4)nn23)cc1', 'label 0'),
  ('Cn1ncc2ncc(-c3ccc4ncc(C#N)c(N5CCc6cc(F)c(Cl)cc65)c4c3)cc21', 'label 1');

Problem: Input CN1CCN(CCCCCC(=O)Nc2nc(-c3cccc(NS(=O)(=O)c4cccc5c(N(C)C)cccc45)c3)cs2)CC1 ; condition: growth strictly below 50%. Does it hold?
Result: label 0

Problem: In plain terms, does N#C/C(=C\c1ccc(-c2ccc(Cl)cc2)o1)C(=O)Nc1ncc(Cc2ccc(Br)cc2)s1 come in under 50% for growth?
Result: label 1

Problem: Please check: growth for CC1(C)CC[C@]2(C(=O)NCCCCCCN(CCCN)CCCN)CC[C@]3(C)C(=CC[C@@H]4[C@@]5(C)CC[C@H](O)C(C)(C)[C@@H]5CC[C@]43C)[C@@H]2C1 , strictly under 50% or not?
Result: label 0

---

# Test system: TK-10 renal
# run_description: NCI-60 one-dose screen, 48 h (100 = growth as untreated, 0 = no growth, -100 = all killed)
# condition_set: 10 µM unless noted
Compounds without any hit were thinned out: in the full panel of roughly 83,000, 20% have a hit.
value_kind: growth (%)
Give the quantity in %, number only.

INSERT INTO measurements (structure_smiles_string, value_kind, value_measured) VALUES
  ('O=C1[C@@H]2Cc3c([nH]c4ccccc34)[C@@H](c3ccc(Cl)cc3)N2C(=O)CN1C1CCN(Cc2ccccc2)CC1', 'growth', 78.9),
  ('CCCCCC[n+]1ccc(SCC(=O)n2ccc3ccccc32)c2ccccc21', 'growth', 108),
  ('O=C(/C=C/c1cccc(Br)c1)c1cccc(OCCCCOc2cccc(C(=O)/C=C/c3cccc(Br)c3)c2)c1', 'growth', 115),
  ('O=C(CN1CCN(c2cc(=O)[nH]c3ccc(F)cc23)CC1)N(c1ccccc1)c1ccccc1', 'growth', 98.7),
  ('CCOC(=O)c1cccnc1Nc1ccc(NC(=O)Nc2ccc(Cl)c(C(F)(F)F)c2)cc1', 'growth', 40.3),
  ('COc1ccc2c(c1)c(-c1nnc(N)nc1-c1c[nH]c3ccc(F)cc13)cn2C', 'growth', 90);

Problem: What value of growth has been reported for the following compound? O=c1nc(Nc2ccc([N+](=O)[O-])cc2O)sc2ccccc12
Result: 82
